Data origin: patent US7405201B2

Positions of bridges follow the written chain, without caps; N, C: chain ends. Non-standard residues stand in square brackets, D forms with d. Residues, ends and D or L forms follow the SMILES beside them. *: point of attachment. Phe(3,5-F2) = N[C@@H](Cc1cc(F)cc(F)c1)C(=O)O; Phe(2-F) = N[C@@H](Cc1ccccc1F)C(=O)O; X4 = O=C(/C=C/C1CC=CCC1)*; NMeA = CN[C@@H](C)C(=O)O; X1 = CC(C)/C=C(\F)C(=O)*; X5 = CCCC(C)/C=C/C(=O)*
Consider the following MIC values measured on Enterococcus faecium L 4001.

molecule | unit | relational-operator | MIC
C[C@@H]1NC(=O)[C@H](C)N(C)C(=O)[C@@H]2CCCN2C(=O)[C@@H](NC(=O)[C@H](Cc2ccccc2F)NC(=O)/C=C/C2CC=CCC2)COC(=O)[C@@H]2CCCN2C1=O (some centres unmarked) [Example 28] (X4-[Phe(2-F)]SP[NMeA]AP; ester 2-C) | µg/mL | = | 4
CC(C)/C=C(\F)C(=O)N[C@@H](Cc1cc(F)cc(F)c1)C(=O)N[C@H]1COC(=O)[C@@H]2CCCN2C(=O)[C@H](C)NC(=O)[C@H](C)N(C)C(=O)[C@@H]2CCCN2C1=O [Example 84] (X1-[Phe(3,5-F2)]SP[NMeA]AP; ester 2-C) | µg/mL | = | 0.5
C[C@@H]1C[C@H]2C(=O)OC[C@H](NC(=O)[C@H](Cc3cc(F)cc(F)c3)NC(=O)CCC3CCCCC3)C(=O)N3CCC[C@H]3C(=O)N3CCCC[C@H]3C(=O)N[C@@H](C)C(=O)N2C1 | µg/mL | < | 0.125
CCCC(C)/C=C/C(=O)N[C@@H](Cc1cc(F)cc(F)c1)C(=O)N[C@H]1COC(=O)[C@@H]2CCCN2C(=O)[C@H](C)NC(=O)[C@H](C)N(C)C(=O)[C@@H]2CCCN2C1=O (some centres unmarked) [Example 75] (X5-[Phe(3,5-F2)]SP[NMeA]AP; ester 2-C) | µg/mL | < | 0.125
C=CCC/C=C/C(=O)N[C@@H](Cc1cc(F)cc(F)c1)C(=O)N[C@H]1COC(=O)[C@@H]2C[C@@H](C)CN2C(=O)[C@H](C)NC(=O)[C@@H]2CCCCN2C(=O)[C@@H]2CCCN2C1=O | µg/mL | < | 0.125
